# test_summary: Solubility test in cosmetic solvents and water
# Format: physicochemical
# condition_parameters: cosmetic solvent Cetiol AB; % m/V
# Description: The solubility of Compounds A to D was tested, wherein the addition of Compound A and B to the respective solvent had been stopped after 50% m/V. In case of Compound C and D, a precipitation after about 1% m/V had been visible. The respective pH-values (see Table 1) had been measured of the final solution or suspension, respectively.
property_measured: solubility

[[record]]
cpd_smiles = "COc1ccc(/N=C2\\CCC(Nc3ccc(OC)cc3)=C2C)cc1.Cc1ccc(S(=O)(=O)O)cc1"
property_measured = "solubility"
measurement = "<1.2%"

[[record]]
cpd_smiles = "CC1=C(NCCO)CCC/C1=N\\CCO.Cl"
property_measured = "solubility"
measurement = "insoluble"

[[record]]
cpd_smiles = "CC1=C(Nc2ccccc2Br)CC/C1=N\\c1ccccc1Br.Cc1ccc(S(=O)(=O)O)cc1"
property_measured = "solubility"
measurement = "<1.2%"

[[record]]
cpd_smiles = "CC1=C(NCCOCCO)CCC/C1=N\\CCOCCO.Cl"
property_measured = "solubility"
measurement = "insoluble"


----------
# test_summary: Solubility test in cosmetic solvents and water
# Assay type: physicochemical
# condition_parameters: cosmetic solvent Myritol 318; % m/V
# Experimental: The solubility of Compounds A to D was tested, wherein the addition of Compound A and B to the respective solvent had been stopped after 50% m/V. In case of Compound C and D, a precipitation after about 1% m/V had been visible. The respective pH-values (see Table 1) had been measured of the final solution or suspension, respectively.
property_measured: solubility

[[record]]
cpd_smiles = "CC1=C(NCCO)CCC/C1=N\\CCO.Cl"
measurement = "insoluble"

[[record]]
cpd_smiles = "COc1ccc(/N=C2\\CCC(Nc3ccc(OC)cc3)=C2C)cc1.Cc1ccc(S(=O)(=O)O)cc1"
measurement = "<1.0%"

[[record]]
cpd_smiles = "CC1=C(Nc2ccccc2Br)CC/C1=N\\c1ccccc1Br.Cc1ccc(S(=O)(=O)O)cc1"
measurement = "<1.0%"

[[record]]
cpd_smiles = "CC1=C(NCCOCCO)CCC/C1=N\\CCOCCO.Cl"
measurement = "insoluble"


----------
# test_summary: Solubility test in cosmetic solvents and water
# Type: physicochemical
# condition_parameters: cosmetic solvent Cetiol Ultimate; % m/V
property_measured: solubility

[[record]]
cpd_smiles = "COc1ccc(/N=C2\\CCC(Nc3ccc(OC)cc3)=C2C)cc1.Cc1ccc(S(=O)(=O)O)cc1"
measurement = "<1.0%"

[[record]]
cpd_smiles = "CC1=C(NCCOCCO)CCC/C1=N\\CCOCCO.Cl"
measurement = "insoluble"

[[record]]
cpd_smiles = "CC1=C(NCCO)CCC/C1=N\\CCO.Cl"
measurement = "insoluble"

[[record]]
cpd_smiles = "CC1=C(Nc2ccccc2Br)CC/C1=N\\c1ccccc1Br.Cc1ccc(S(=O)(=O)O)cc1"
measurement = "<1.0%"


----------
# test_summary: Solubility test in cosmetic solvents and water
# Type: physicochemical
# condition_parameters: Water
property_measured: pH-value of the final solution or suspension

[[record]]
cpd_smiles = "CC1=C(NCCOCCO)CCC/C1=N\\CCOCCO.Cl"
measurement = "(pH 6)"

[[record]]
cpd_smiles = "COc1ccc(/N=C2\\CCC(Nc3ccc(OC)cc3)=C2C)cc1.Cc1ccc(S(=O)(=O)O)cc1"
measurement = "(pH 7)"

[[record]]
cpd_smiles = "CC1=C(NCCO)CCC/C1=N\\CCO.Cl"
measurement = "(pH 6)"

[[record]]
cpd_smiles = "CC1=C(Nc2ccccc2Br)CC/C1=N\\c1ccccc1Br.Cc1ccc(S(=O)(=O)O)cc1"
measurement = "(pH 7)"


Attribution: patent US20230067277A1
